target system: COX-2 (Homo sapiens, UniProt P35354)
Construct: endogenous in cells; host or cells: human whole blood from volunteers, stimulated with LPS
Sequence (P35354 18-604): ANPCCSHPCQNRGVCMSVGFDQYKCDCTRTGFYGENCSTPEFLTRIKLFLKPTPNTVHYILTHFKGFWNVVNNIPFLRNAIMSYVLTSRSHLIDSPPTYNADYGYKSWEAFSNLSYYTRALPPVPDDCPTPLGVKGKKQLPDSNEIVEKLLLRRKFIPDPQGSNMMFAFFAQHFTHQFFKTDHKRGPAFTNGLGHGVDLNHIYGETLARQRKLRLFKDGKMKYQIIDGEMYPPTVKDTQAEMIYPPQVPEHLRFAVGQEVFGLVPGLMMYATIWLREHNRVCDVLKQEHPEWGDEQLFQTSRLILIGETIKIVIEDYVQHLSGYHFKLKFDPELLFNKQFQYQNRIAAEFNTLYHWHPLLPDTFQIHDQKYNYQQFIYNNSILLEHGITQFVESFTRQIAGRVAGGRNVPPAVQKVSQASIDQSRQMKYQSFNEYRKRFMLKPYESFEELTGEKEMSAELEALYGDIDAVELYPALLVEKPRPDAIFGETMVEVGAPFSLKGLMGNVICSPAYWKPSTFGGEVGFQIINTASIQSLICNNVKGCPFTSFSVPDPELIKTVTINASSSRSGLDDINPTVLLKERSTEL
assay: Assay for in vitro COX-2 inhibition in LPS-stimulated human whole blood (PGE2 by EIA)
Assay type: cell-based
protocol conditions: human whole blood; compound 0.1 to 25 μM, 15 minutes at 37° C.; LPS 100 μg/mL for 24 h; PGE2 levels in plasma by EIA
For each entry below, report its IC50 value.

NS(=O)(=O)c1ccc(-c2c(-c3cccc(F)c3)nc3ccccn23)cc1; > 10 µM
CS(=O)(=O)c1ccc(-c2c(-c3ccccc3)nc3ncccn23)cc1; 5.5 µM
Cc1cccc(-c2nc3ccccn3c2-c2ccc(S(N)(=O)=O)cc2)c1; 3.1 µM
COc1ccc(-c2nc3ncccn3c2-c2ccc(S(C)(=O)=O)cc2)cc1; 1.4 µM
Cc1ccc(-c2nc3ncccn3c2-c2ccc(S(N)(=O)=O)cc2)cc1; 4.5 µM
COc1ccc(-c2nc3ccccn3c2-c2ccc(S(N)(=O)=O)cc2)cc1C; 1.7 µM

Give IC50 for each of the items listed below.
1. Cc1ccn2c(-c3ccc(S(C)(=O)=O)cc3)c(-c3ccc(C)c(C)c3)nc2n1
2. Cc1ccccc1-c1nc2ccccn2c1-c1ccc(S(N)(=O)=O)cc1
3. CCOc1ccc(-c2nc3ccccn3c2-c2ccc(S(C)(=O)=O)cc2)cc1

1. 4.2 µM
2. > 5 µM
3. 3.5 µM

Cited source: patent US6670365B1
